Recorded IC50 for compounds tested on UniProt P23458, drawn from a number of studies.
Field: label. Allowed values: TRUE (IC50 < 900 nM) or FALSE (IC50 >= 900 nM).

N#CCC1(n2cc(-c3ncnc4[nH]ccc34)cn2)CN([C@H]2CC[C@@H](Oc3cc(CCO)nc(C(F)(F)F)n3)CC2)C1	TRUE
N#C[C@]1(C2CC2)C(=O)N2C[C@H]1COCCCCOCc1cccc(n1)Nc1cc2ccn1	TRUE
Cc1cnc(Nc2cnn(C)c2)nc1N1CC2CCCC(C1)N2CCC#N	TRUE
CN(c1ncnc2[nH]ccc12)[C@H]1CN(S(=O)(=O)c2ccc3ccccc3c2)CC12CC2	TRUE
COc1ccc(Cc2nnc(N3CCN(C(=O)Nc4ccc(Cl)c(C(F)(F)F)c4)CC3)c3ccccc23)cc1	FALSE
CN(c1ncnc2[nH]ccc12)N1CCCN(C(=O)CC(F)(F)F)CC1	FALSE
CCOC(=O)c1cccc(Nc2nc(N)n(C(=O)c3ccccc3F)n2)c1	FALSE
CO[C@@H]1CN(C(=O)c2ccnc(C(F)(F)F)c2F)CC[C@@H]1N1CC(CC#N)(n2cc(-c3ncnc4[nH]ccc34)cn2)C1 (relative stereo)	TRUE
Cn1c(-c2cn(CCO)nn2)nc(-c2ccc(F)cc2)c1-c1ccncc1	FALSE
CC(=O)N[C@H]1CCc2ccc(Oc3cnc4[nH]cc(C(=O)NC(C)C)c4n3)cc21	FALSE

[ask] Dear reviewer, please state whether `CCN1CCN(Cc2ccc(-c3cc4c(-c5cccc(N6CCOc7cc(C8CC8)cc(F)c7C6=O)c5CO)ccnc4[nH]3)nc2)CC1` has IC50 strictly beneath 900 nM.
[reply] FALSE

[ask] Hello, I'm reviewing records and need to know if IC50 of `CC1(C)[C@H](Nc2c(C(N)=O)cnn3cccc23)CC[C@]1(C)N` is below 900 nM. Could you check?
[reply] TRUE

###

The compounds below each have a reported pIC50 tested on Tyrosine-protein kinase JAK1 (Homo sapiens); the values come from various publications.
Sequence (P23458 whole entry): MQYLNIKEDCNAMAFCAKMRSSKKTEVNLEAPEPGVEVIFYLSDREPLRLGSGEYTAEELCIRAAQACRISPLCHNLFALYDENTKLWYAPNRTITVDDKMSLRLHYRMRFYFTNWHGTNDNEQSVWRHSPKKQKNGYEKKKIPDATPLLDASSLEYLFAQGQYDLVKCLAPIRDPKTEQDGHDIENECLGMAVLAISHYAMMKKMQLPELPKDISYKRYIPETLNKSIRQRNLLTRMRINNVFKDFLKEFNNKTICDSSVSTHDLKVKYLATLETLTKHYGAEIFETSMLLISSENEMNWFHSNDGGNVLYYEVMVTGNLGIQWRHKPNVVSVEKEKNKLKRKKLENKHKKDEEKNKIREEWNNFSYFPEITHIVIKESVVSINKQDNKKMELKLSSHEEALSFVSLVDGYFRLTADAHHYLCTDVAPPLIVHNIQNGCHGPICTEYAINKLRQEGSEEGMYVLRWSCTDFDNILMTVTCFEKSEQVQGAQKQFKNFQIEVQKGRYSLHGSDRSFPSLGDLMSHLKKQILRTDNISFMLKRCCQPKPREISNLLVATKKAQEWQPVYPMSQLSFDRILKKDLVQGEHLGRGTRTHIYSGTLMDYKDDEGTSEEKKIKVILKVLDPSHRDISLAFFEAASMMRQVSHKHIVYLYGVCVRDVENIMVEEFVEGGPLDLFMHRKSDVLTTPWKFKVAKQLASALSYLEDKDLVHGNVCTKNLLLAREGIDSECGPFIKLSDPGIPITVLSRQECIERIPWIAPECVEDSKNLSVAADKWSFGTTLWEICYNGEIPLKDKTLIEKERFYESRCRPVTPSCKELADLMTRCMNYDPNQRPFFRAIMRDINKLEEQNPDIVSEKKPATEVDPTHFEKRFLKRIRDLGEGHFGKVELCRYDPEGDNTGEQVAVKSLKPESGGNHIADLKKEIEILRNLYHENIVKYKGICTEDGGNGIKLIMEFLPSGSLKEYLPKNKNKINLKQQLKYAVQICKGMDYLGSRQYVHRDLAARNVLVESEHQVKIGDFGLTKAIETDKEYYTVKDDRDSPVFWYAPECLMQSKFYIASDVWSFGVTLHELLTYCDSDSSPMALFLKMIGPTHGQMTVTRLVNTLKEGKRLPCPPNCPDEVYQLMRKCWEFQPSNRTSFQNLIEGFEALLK
For clarity, pIC50 is expressed as the negative log10 of concentration in mol/L.

Illustrative cases are given below, each with its answer.
CC1(C)[C@H](Nc2c(C(N)=O)cnn3cc(-c4ccccc4F)cc23)CC[C@]1(C)N	8.92
O=C1NC(=O)C(c2c[nH]c3ccccc23)=C1c1cc(N2CCOCC2)ccc1C(F)(F)F	5.19
C=CC(=O)N1CCCC(n2nc(-c3cc(C=O)n(C)n3)c3c(N)ncnc32)C1 (stereo not given)	6.67
C[C@@H]1C[C@H](Nc2c(C(N)=O)cnc3[nH]ccc23)CCN1Cc1cccc(Cl)c1 (relative stereo)	8.16
CN(c1ncnc2[nH]ccc12)N1CCC[C@@H](C(=O)NCC(F)(F)F)C1	9.15

Recorded pIC50 (compound `CC(C)S(=O)(=O)N1C[C@H](N(C)c2ncnc3[nH]ccc23)C2(CC2)C1` ): 7.70

In plain terms, `Cc1cnc(Nc2ccc3c(c2)CCN3S(=O)(=O)c2ccc(C(F)(F)F)cc2)nc1-c1cnn(CCC#N)c1` has a documented pIC50 of 7.08

###

The entries below pair molecules with pIC50 values for Tyrosine-protein kinase JAK1 (Homo sapiens, UniProt P23458), as found in several publications.
Kindly note that pIC50 refers to -log10 of the concentration in mol/L and answer with the value alone.

Previously resolved entries follow.
CN(c1ncnc2[nH]ccc12)N1CCCC(C(=O)N2CC(O)C2)C1 (stereo not given)	6.81
C[C@@H](NC(=O)c1c[nH]c2ncc(-c3cn(C)c4cc(Cl)ccc34)nc12)C(=O)N1CC(C#N)C1	9.00
C[C@@H](NC(=O)c1c[nH]c2ncc(-c3cnc4cc(Cl)ccn34)nc12)C(=O)N1CC(C#N)C1	7.21

Next molecule, please.
Notebook: `CC1(C)CCC[C@H]1Nc1c(C(N)=O)cnn2cccc12` , pIC50 read as 7.62
